Recorded values, source patent EP0308020A2.

Test system: Staphylococcus aureus MB 4310
Assay: Agar diffusion assay for antibacterial activity (MIC)
Type: cell-based
Details: MB4310, St. aur., strain MB 4310, trypticase soy agar, 10⁵ cfu, 35°C, 20 hours, read-out: Minimum inhibitory conc.
Some compounds, each annotated with its measured MIC.
Field: numeric (µg/mL). Do not append units.

The cases that follow already have their MIC on record.
CN1CCN(c2ccc(-c3[nH]c(=O)c(C(=O)O)cc3-c3ccc(F)cc3)cc2)CC1
16
O=C(O)c1cc(-c2ccc(F)cc2)c(-c2ccc(N3CCCCC3)cc2)[nH]c1=O
1
CSc1ccc(-c2[nH]c(=O)c(C(=O)O)cc2-c2ccc(F)cc2)cc1
8
CN(C)c1ccc(-c2[nH]c(=O)c(C(=O)O)cc2-c2ccc(O)cc2)cc1F
8
O=C(O)c1cc(-c2ccc(F)cc2)c(-c2ccc(N3CCOCC3)cc2)[nH]c1=O
4

Qu. // MIC lookup, key: C[N+](C)([O-])c1ccc(-c2[nH]c(=O)c(C(=O)O)cc2-c2ccc(O)cc2)cc1
Ans. 8

Qu. // MIC lookup, key: COc1ccc(-c2[nH]c(=O)c(C(=O)O)cc2-c2ccc(F)cc2)cc1
Ans. 1

Qu. // MIC lookup, key: CN(C)c1ccc(-c2[nH]c(=O)c(C(=O)O)cc2-c2ccc(O)cc2)cc1
Ans. 0.25

Qu. // MIC lookup, key: CN(C)c1ccc(-c2[nH]c(=O)c(C(=O)O)cc2-c2ccc(O)cc2)c(F)c1
Ans. 1

Qu. // MIC lookup, key: CN(C)c1ccc(-c2c(-c3ccc(F)cc3)cc(C(=O)O)c(=O)n2C)cc1
Ans. 2

---

Tested on: Escherichia coli MB 5157
Experiment: Agar diffusion assay for antibacterial activity (MIC)
Type: cell-based
Conditions: MB5157, E. coli, strain MB 5157, trypticase soy agar, 10⁵ cfu, 35°C, 20 hours, read-out: Minimum inhibitory conc.
Just a reminder that ties go to no (0): only MIC strictly below 8 µg/mL counts as yes (1).

# count of solved cases: 4
CN(C)c1ccc(-c2[nH]c(=O)c(C(=O)O)cc2-c2ccc(O)cc2)cc1F
no (0)
C[N+](C)([O-])c1ccc(-c2[nH]c(=O)c(C(=O)O)cc2-c2ccc(F)cc2)cc1
yes (1)
CN1CCN(c2ccc(-c3[nH]c(=O)c(C(=O)O)cc3-c3ccc(F)cc3)cc2)CC1
no (0)
CN(C)c1ccc(-c2c(-c3ccc(O)cc3)cc(C(=O)O)c(=O)n2C)cc1
yes (1)

Qu. Does this compound meet the criterion MIC < 8 µg/mL? COc1ccc(-c2[nH]c(=O)c(C(=O)O)cc2-c2ccc(F)cc2)cc1
Ans. yes (1)

Qu. Does this compound meet the criterion MIC < 8 µg/mL? CN(C)c1ccc(-c2[nH]c(=O)c(C(=O)O)cc2-c2ccc(O)cc2)c(F)c1
Ans. yes (1)

---

Tested on: Staphylococcus aureus MB 4310
Experiment: Agar diffusion assay for antibacterial activity (MIC)
Format: cell-based
Settings: MB4310, St. aur., strain MB 4310, trypticase soy agar, 10⁵ cfu, 35°C, 20 hours, read-out: Minimum inhibitory conc.
Some compounds, each annotated with its measured MIC.
Field: numeric (µg/mL). Do not append units.

C[N+](C)([O-])c1ccc(-c2[nH]c(=O)c(C(=O)O)cc2-c2ccc(F)cc2)cc1 [Example 49]
0.5
CN(C)c1ccc(-c2[nH]c(=O)c(C(=O)O)cc2-c2ccc(F)cc2)cc1 [Example 33]
2

Alright, here's another compound for you.
Qu. // MIC lookup, key: CN(C)c1ccc(-c2c(-c3ccc(O)cc3)cc(C(=O)O)c(=O)n2C)cc1 [Example 51]
Ans. 0.5
